Taken from patent US20250296909A1.

# System: T lymphocyte cell line Jurkat E6-1
# assay.protocol: Cytotoxicity experiment (CCK-8, relative cell survival)
# Format: cell-based
# condition.info: 30 μM; 24 hours; untreated cells = 100%
# Protocol: To evaluate the cytotoxicity of the compound according to the present invention, the following experiment was conducted. The T lymphocyte cell line Jurkat E6-1, purchased from the Korean Cell Line Bank, was cultured in RPMI-1640 medium comprising 10% FBS, 100 U/mL penicillin, and 100 μg/mL streptomycin. […] Absorbance was then measured at 450 nm to determine the relative cell survival rate compared to untreated cells, as shown in Table 4. […]
assay.endpoint: Relative cell survival rate (%)
Numbers only here, please. The scale is %.

// sample CCCCCCCCCCCCNC(=O)c1ccccc1I [Compound 63] , its Relative cell survival rate (%) was 75

Noted for CCCCCCCCCCCCNC(=O)c1ncccc1N [Compound 67] : its Relative cell survival rate (%) reads 93

Form: compound = CCCCCCCCCCCCNS(=O)(=O)c1c(F)cccc1F [Compound 54] ; Relative cell survival rate (%) = 77

Relative cell survival rate (%) recorded for this compound, CCCCCCCCCCCCNC(=O)c1ccc(F)c(F)c1F [Compound 55] , is 108

Field Relative cell survival rate (%) (entry CCCCCCCCCCCC(=O)NCc1ccccc1Br [Compound 43] ) reads 108

Now for another entry.
Per the record, CCCCNC(=O)c1ccccc1F [Compound 81] has Relative cell survival rate (%) of 107
